// values below are MIC; system is Streptococcus mutans
READOUT_LABEL: MIC

* CC[C@H](C)[C@H](NC(=O)[C@H](CCC(=O)O)NC(=O)[C@H](CCCCN)NC(=O)[C@H](CC(C)C)NC(=O)[C@H](CCC(N)=O)NC(=O)[C@H](CCC(=O)O)NC(=O)[C@@H](NC(=O)[C@H](CC(C)C)NC(=O)[C@@H](N)CCCCN)C(C)C)C(=O)N[C@@H](Cc1ccccc1)C(=O)N[C@@H](CCCN=C(N)N)C(=O)O | ≥ 178 µM
* NC(N)=NCCC[C@H](NC(=O)[C@H](Cc1c[nH]c2ccccc12)NC(=O)[C@H](Cc1c[nH]c2ccccc12)NC(=O)[C@H](Cc1c[nH]c2ccccc12)NC(=O)[C@H](CCCN=C(N)N)NC(=O)[C@H](CCCN=C(N)N)NC(=O)[C@@H](N)CCCN=C(N)N)C(=O)O | 26.6 µM
* NC(=O)[C@H](Cc1cnc[nH]1)NC(=O)[C@H](Cc1ccccc1)NC(=O)[C@H](Cc1ccccc1)NC(=O)[C@H](Cc1cnc[nH]1)NC(=O)[C@H](Cc1cnc[nH]1)NC(=O)[C@H](Cc1ccccc1)NC(=O)[C@H](Cc1cnc[nH]1)NC(=O)[C@H](CCCN=C(N)N)NC(=O)[C@H](Cc1c[nH]c2ccccc12)NC(=O)[C@H](Cc1c[nH]c2ccccc12)NC(=O)[C@H](CCCN=C(N)N)NC(=O)[C@H](CCCN=C(N)N)NC(=O)[C@H](Cc1c[nH]c2ccccc12)NC(=O)[C@@H](N)CCCN=C(N)N | 3.65 µM
* NCCCC[C@H](NC(=O)[C@H](CCCN=C(N)N)NC(=O)[C@H](CCCN=C(N)N)NC(=O)[C@H](CCCCN)NC(=O)[C@H](Cc1c[nH]c2ccccc12)NC(=O)[C@H](CCCN=C(N)N)NC(=O)[C@@H](N)CCCN=C(N)N)C(=O)O | ≥ 461 µM

---

Overview of recorded MIC for various compounds
System: Staphylococcus aureus ATCC 25923
READOUT_LABEL: MIC (µM)

• CC[C@H](C)[C@H](N)C(=O)N[C@@H](CC(N)=O)C(=O)N[C@@H](Cc1c[nH]c2ccccc12)C(=O)N[C@@H](CCCCN)C(=O)N[C@@H](CCCCN)C(=O)N[C@H](C(=O)N[C@@H](C)C(=O)N[C@@H](CCCCN)C(=O)N[C@@H](CCCCN)C(=O)N[C@H](C(=O)N[C@@H](C)C(=O)NCC(=O)N[C@@H](CCSC)C(=O)N[C@@H](CC(C)C)C(N)=O)C(C)C)[C@@H](C)CC = 1.25
• CC[C@H](C)[C@H](NC(=O)[C@H](C)NC(=O)[C@H](CCCN=C(N)N)NC(=O)[C@H](CC(C)C)NC(=O)[C@@H](NC(=O)[C@H](CO)NC(=O)CN)C(C)C)C(=O)N[C@@H](CCSC)C(=O)N[C@@H](CCCN=C(N)N)C(=O)N[C@@H](CCSC)C(=O)N[C@@H](Cc1ccccc1)C(=O)N[C@@H](C)C(=O)N[C@@H](CCCCN)C(=O)N[C@@H](CC(C)C)C(=O)N[C@@H](CCSC)C(=O)NCC(=O)O = 35.9
• CC(C)C[C@H](NC(=O)[C@H](CCCCN)NC(=O)[C@H](CCCCN)NC(=O)[C@H](Cc1ccccc1)NC(=O)[C@H](Cc1ccccc1)NC(=O)[C@H](CCCCN)NC(=O)[C@H](CCCCN)NC(=O)[C@@H](N)Cc1ccccc1)C(=O)N[C@@H](CCCCN)C(=O)N[C@@H](CC(N)=O)C(=O)N[C@@H](CO)C(=O)N[C@H](C(=O)N[C@@H](CCCCN)C(=O)N[C@@H](CCCCN)C(=O)N[C@@H](CCCN=C(N)N)C(=O)O)C(C)C = 21.3

All values here come from DBAASP.
